// values below are reported Stability WB_Mouse (ice; 1 hr)
- experiment-notes: Stability in mouse blood
- Format: in vitro ADME
- condition-context: on ice, percent unchanged test compound
- Description: Stability of compounds were determined in fresh human whole blood with K2EDTA as the anticoagulant (stored refrigerated at 2-8° C. and used within 7 days of receipt). The experiment was conducted with three replicates for each time point. […] The supernatant was analyzed by LC-MS/MS. The MS peak area ratio of the test compounds versus the internal standard was calculated and percent unchanged test compound was calculated for each time point using this ratio. […]
recorded-metric: Stability WB_Mouse (ice; 1 hr) (%)

compound	recorded-metric	number
CCOC(=O)COP1(=O)OC[C@H]2O[C@@H](n3cnc4c(OCC)nc(N)nc43)[C@](C)(F)[C@@H]2O1 (single isomer, unassigned; diastereomer 1) [Compound 7 Diastereomer 1]	Stability WB_Mouse (ice; 1 hr)	1
CCOc1nc(N)nc2c1ncn2[C@@H]1O[C@@H]2COP(=O)(OCCCC(=O)OC(C)C)O[C@H]2[C@@]1(C)O (single isomer, unassigned) [Compound 1 Diastereomer 1]	Stability WB_Mouse (ice; 1 hr)	79
CCOc1nc(N)nc2c1ncn2[C@@H]1O[C@@H]2COP(=O)(OCCSC(=O)C(C)(C)CO)O[C@H]2[C@@]1(C)F (single isomer, unassigned) [Compound 5 Diastereomer 2]	Stability WB_Mouse (ice; 1 hr)	93
CCOc1nc(N)nc2c1ncn2[C@@H]1O[C@@H]2COP(=O)(OCCCC(=O)OC(C)C)O[C@H]2[C@@]1(C)O (single isomer, unassigned) [Compound 1 Diastereomer 2]	Stability WB_Mouse (ice; 1 hr)	1
CCOc1nc(N)nc2c1ncn2[C@@H]1O[C@@H]2COP(=O)(OCCSC(=O)C(C)(C)CO)O[C@H]2[C@@]1(C)F (single isomer, unassigned) [Compound 5 Diastereomer 1]	Stability WB_Mouse (ice; 1 hr)	99
CCOc1nc(N)nc2c1ncn2C1OC2COP(=O)(Oc3ccc(CC(NC(=O)OC)C(=O)OC(C)C)cc3)OC2C1(C)F (single isomer, unassigned; diastereomer 2) [Compound 13 Diastereomer 2]	Stability WB_Mouse (ice; 1 hr)	1
CCOc1nc(N)nc2c1ncn2[C@@H]1O[C@@H]2COP(=O)(OCCCC(=O)OC(C)C)O[C@H]2[C@@]1(C)F (single isomer, unassigned) [Compound 20 Diastereomer 1]	Stability WB_Mouse (ice; 1 hr)	1
CCOc1nc(N)nc2c1ncn2C1OC2COP(=O)(Oc3ccc(CC(NC(=O)OC)C(=O)OC(C)C)cc3)OC2C1(C)F (single isomer, unassigned; diastereomer 1) [Compound 13 Diastereomer 1]	Stability WB_Mouse (ice; 1 hr)	1
CCOc1nc(N)nc2c1ncn2[C@@H]1O[C@@H]2COP(=O)(OCCSC(=O)C(C)(C)CO)O[C@H]2[C@@]1(C)O (single isomer, unassigned) [Compound 4 Diastereomer 2]	Stability WB_Mouse (ice; 1 hr)	105
CCOc1nc(N)nc2c1ncn2[C@@H]1O[C@@H]2COP(=O)(OCCCC(=O)OC(C)C)O[C@H]2[C@@]1(C)F (single isomer, unassigned; diastereomer 1) [Compound 3 Diastereomer 1]	Stability WB_Mouse (ice; 1 hr)	14
